# system: T1, human Dectin-1 (biosensor tests of Tables 3, 4A and 9; construct not stated) (human, UniProt Q9BXN2 66-247, limits assumed)
# T1 construct: also called hDectin-1
# T1 sequence (looked up): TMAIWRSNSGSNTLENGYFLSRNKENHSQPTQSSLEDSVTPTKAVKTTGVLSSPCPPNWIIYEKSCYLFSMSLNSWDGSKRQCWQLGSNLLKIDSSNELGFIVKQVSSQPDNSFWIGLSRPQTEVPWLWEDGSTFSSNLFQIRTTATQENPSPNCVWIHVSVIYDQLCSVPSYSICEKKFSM
# testSummary: Fab K dis, run 2
testReadout: koff (s⁻¹)
Quick reminder: number only, in s⁻¹, skip the unit.

In plain terms, 2M24A.30 hFab L1 (Fab, V domains shown, Fab; also called 2M24.L1) VH: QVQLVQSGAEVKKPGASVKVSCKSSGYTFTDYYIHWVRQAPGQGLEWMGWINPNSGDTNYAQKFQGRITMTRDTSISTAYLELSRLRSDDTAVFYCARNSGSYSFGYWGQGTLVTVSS VL: DIQMTQSPSSVSASVGDRVTITCRASQGISSWLAWYQQKPGKAPKLLIFGASSLQSGVPSRFSGSGSGTDFTLTISSLQPEDFATYYCQQAYSFPFTFGPGTKVDIE has a documented koff of 0.00208

In plain terms, 2M24A.33 hFab L4 (Fab, V domains shown, Fab; also called 2M24.L4) VH: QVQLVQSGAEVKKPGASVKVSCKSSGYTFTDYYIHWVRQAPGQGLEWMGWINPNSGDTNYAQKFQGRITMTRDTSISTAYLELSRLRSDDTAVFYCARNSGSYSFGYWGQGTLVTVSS VL: DIQMTQSPSSVSASVGDRVTITCRASQGISSWLAWYQQKPGKAPKLLIYAASSLQSGVPSRFSGSGSGTDFTLTISSLQPEDFATYYCQQAYSFPFTFGPGTKVDIE has a documented koff of 0.00278

In plain terms, 2M24A.31 hFab L2 (Fab, V domains shown, Fab; also called 2M24.L2) VH: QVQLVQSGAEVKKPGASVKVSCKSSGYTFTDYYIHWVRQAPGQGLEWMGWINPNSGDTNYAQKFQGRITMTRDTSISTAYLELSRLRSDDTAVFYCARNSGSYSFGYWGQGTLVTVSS VL: DIQMTQSPSSVSASVGDRVTITCRASQGISSWLAWYQQKPGKAPKLLIYGASSLQSGVPSRFSGSGSGTDFTLTISSLQPEDFATYYCQQAYSFPFTFGPGTKVDIE has a documented koff of 0.00236

In plain terms, 2M24A.32 hFab L3 (Fab, V domains shown, Fab; also called 2M24.L3) VH: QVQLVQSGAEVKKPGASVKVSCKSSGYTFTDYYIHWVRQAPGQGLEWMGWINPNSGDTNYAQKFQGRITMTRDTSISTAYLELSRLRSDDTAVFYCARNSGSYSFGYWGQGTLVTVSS VL: DIQMTQSPSSVSASVGDRVTITCRASQGISSWLAWYQQKPGKAPKLLIFAASSLQSGVPSRFSGSGSGTDFTLTISSLQPEDFATYYCQQAYSFPFTFGPGTKVDIE has a documented koff of 0.00223
